- Test system: E. coli TESEC Mtb Asd
- test.protocol: growth (OD600 after 10 h); higher = more growth (less inhibition)
- experimental.setup: arabinose induction (level): Low; compound 0.1 mM; raw OD600 reference: median of DMSO wells 0.417, cell-free background 0.041
Counter-ions that a name gives are not always drawn.
The threshold is inclusive: growth of exactly 0.3 counts as Condition met; values below receive Condition not met.

{"columns": ["molecule", "answer.label"],
 "data": [
  ["CN(CCCN1c2ccccc2CCc2ccccc21)CC(=O)c1ccc(Cl)cc1", "Condition not met"],
  ["O=C1C(O)=C(O)C(=O)C(O)=C1O [Tetrahydroxy-1,4-quinone hydrate]", "Condition met"],
  ["C[C@H]1O[C@H](O[C@H]2[C@H](O)[C@@H](O)[C@@H](O[C@@H]([C@H](O)[C@@H](O)C=O)[C@H](O)CO)O[C@@H]2CO)[C@H](O)[C@@H](O)[C@@H]1N[C@H]1C=C(CO)[C@@H](O)[C@H](O)[C@H]1O", "Condition met"],
  ["Nc1nc2[nH]cc(CCc3ccc(C(=O)N[C@@H](CCC(=O)O)C(=O)O)cc3)c2c(=O)[nH]1 [Pemetrexed disodium]", "Condition met"],
  ["C[C@]12CCC(=O)C=C1CC[C@@H]1[C@@H]2C(=O)C[C@@]2(C)[C@H]1CC[C@]2(O)C(=O)CO", "Condition met"],
  ["CCC(C)n1ncn(-c2ccc(N3CCN(c4ccc(OCC5COC(Cn6cncn6)(c6ccc(Cl)cc6Cl)O5)cc4)CC3)cc2)c1=O (stereo unspecified)", "Condition met"],
  ["CC(C(O)c1ccc(O)cc1)N1CCC(Cc2ccccc2)CC1 (stereo unspecified) [Ifenprodil tartrate]", "Condition met"],
  ["CCCCC1(COC(=O)CCC(=O)O)C(=O)N(c2ccccc2)N(c2ccccc2)C1=O", "Condition met"],
  ["CCOC(=O)c1ccc(N)cc1", "Condition met"],
  ["COc1ccc(C[C@@H]2c3cc(OC)c(OC)cc3CC[N@+]2(C)CCC(=O)OCCCCCOC(=O)CC[N@@+]2(C)CCc3cc(OC)c(OC)cc3[C@H]2Cc2ccc(OC)c(OC)c2)cc1OC [Cisatracurium besylate]", "Condition met"],
  ["Cc1c(C)c2c(c(C)c1O)CCC(C)(COc1ccc(CC3SC(=O)NC3=O)cc1)O2 (stereo unspecified)", "Condition not met"],
  ["NS(=O)(=O)c1cc(C2(O)NC(=O)c3ccccc32)ccc1Cl (stereo unspecified)", "Condition met"],
  ["CCOC(=O)[C@H](CCc1ccccc1)N[C@@H](C)C(=O)N1[C@H](C(=O)O)C[C@@H]2CCC[C@@H]21", "Condition met"],
  ["CCCCCCCN(CC)CCCC(O)c1ccc(NS(C)(=O)=O)cc1 (stereo unspecified) [Ibutilide fumarate]", "Condition met"],
  ["CN(C/C=C/c1ccccc1)Cc1cccc2ccccc12 [Naftifine hydrochloride]", "Condition met"],
  ["CC(NCCc1ccc(O)cc1)C(O)c1ccc(O)cc1 (stereo unspecified) [Ritodrine hydrochloride]", "Condition met"],
  ["CC[N+](CC)(CC(=O)Nc1c(C)cccc1C)Cc1ccccc1 [Denatonium benzoate]", "Condition met"],
  ["NC(=O)N1c2ccccc2CC(=O)c2ccccc21 [Oxcarbazepine]", "Condition met"],
  ["CCC1NC(=O)c2cc(S(N)(=O)=O)c(Cl)cc2N1 (stereo unspecified)", "Condition met"],
  ["Cc1cc(N)c2ccccc2[n+]1CCCCCCCCCC[n+]1c(C)cc(N)c2ccccc21 [Dequalinium dichloride]", "Condition not met"],
  ["CC(=O)N1CCN(c2ccc(OCC3COC(Cn4ccnc4)(c4ccc(Cl)cc4Cl)O3)cc2)CC1 (stereo unspecified)", "Condition not met"],
  ["CN(C)CC/C=C1/c2ccccc2COc2ccc(CC(=O)O)cc21 [Olopatadine hydrochloride]", "Condition met"],
  ["Oc1ccc(OCc2ccccc2)cc1", "Condition met"],
  ["C#C[C@]1(O)CC[C@H]2[C@@H]3[C@H](C)CC4=C(CCC(=O)C4)[C@H]3CC[C@@]21C", "Condition met"],
  ["O=C(c1ccccc1)c1ccc2n1CCC2C(=O)O (stereo unspecified)", "Condition met"],
  ["NCc1ccc(S(N)(=O)=O)cc1 [Mafenide hydrochloride]", "Condition met"],
  ["CC(=O)[C@@]12O[C@](C)(c3ccccc3)O[C@@H]1C[C@H]1[C@@H]3CCC4=CC(=O)CC[C@]4(C)[C@H]3CC[C@@]12C [Algestone acetophenide]", "Condition not met"],
  ["CCCC(C(=O)OCCN(CC)CC)(c1ccccc1)c1ccccc1 [Proadifen hydrochloride]", "Condition not met"],
  ["COC1=CC(=O)C[C@@H](C)[C@]12Oc1c(Cl)c(OC)cc(OC)c1C2=O", "Condition met"],
  ["CN(C)c1ccc(O)c2c1C[C@H]1C[C@H]3[C@H](N(C)C)C(=O)C(C(N)=O)=C(O)[C@@]3(O)C(=O)C1=C2O [Minocycline hydrochloride]", "Condition not met"]
]}
